Data provenance: patent US20140066498A1

System: KB (human cancer cell)
Test: Cytotoxicity assay against KB cells in vitro
Type: cell-based
Conditions: Homo sapiens, NA@20 given for inactive
EC50 for assorted molecules
All answers are understood in µM, so give the number only.

Field: example entries. Status: answers known.
{"MOLECULE": "C=C(CC[C@@H](C)C1CCC2C3=C(C(=O)C[C@@]21C)[C@@]1(C)CC[C@@H](O)[C@](C)(O)C1CC3=O)C(C)C(=O)O (some centres unmarked) [Compound I-3]", "EC50 [µM]": 0.3}
{"MOLECULE": "C=C(CC[C@@H](C)C1CCC2C3=C(C(=O)C[C@@]21C)[C@@]1(C)CCC(=O)[C@@H](C)C1CC3O)C(C)C(=O)OC (stereo in doubt) [Compound I-6]", "EC50 [µM]": 2}
{"MOLECULE": "C=C(CC[C@@H](C)C1CCC2C3=C(C(=O)C[C@@]21C)[C@@]1(C)CCC(O)[C@@H](C)C1CC3=O)C(C)C(=O)OC (stereo in doubt) [Compound I-5]", "EC50 [µM]": 0.45}
{"MOLECULE": "C=C(CC[C@@H](C)[C@H]1CC[C@@]2(O)C3=C(C(=O)C[C@]12C)[C@@]1(C)CCC(=O)[C@@H](C)C1C[C@@H]3O)C(C)C(=O)O (some centres unmarked) [Compound I-4]", "EC50 [µM]": 1}

Inquiry: Using the record for C=C(CC[C@@H](C)C1CCC2C3=C(C(=O)C[C@@]21C)[C@@]1(C)CCC(=O)[C@@H](C)C1CC3O)C(C)C(=O)O (stereo in doubt) [Compound I-7] , report its EC50.
Reply text: 15
